Target: T1, ARHGAP21, Q5T5U3
T1 sequence (Q5T5U3 45-169, limits assumed, looked up): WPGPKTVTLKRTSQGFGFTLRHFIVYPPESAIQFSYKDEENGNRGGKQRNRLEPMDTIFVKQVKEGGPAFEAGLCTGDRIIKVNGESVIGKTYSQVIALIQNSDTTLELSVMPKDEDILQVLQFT
Test: holdup assay
Design: key: below the threshold = too weak to quantify, mostly under pKd 3.1 to 4
Conditions: plain residues with an end cap or a label only (N-terminal biotin on a linker: ado-ado)
Observed property: pKd

Previously resolved entries follow.
PPGKHLVTEV [KCNA7, Q96RP8] ... below the threshold
RFQQRMQTHV [KIRREL1, Q96J84] ... below the threshold
EDPRVEVTQF [SLC22A9, Q8IVM8] ... below the threshold
QRPYRRGSEI [KCNJ18, B7U540] ... below the threshold
KSRVAFFEEL [NF2, P35240;P35240-1] ... below the threshold

Challenge: Please give the documented pKd of ILRKSTTTTV [PRR16, Q569H4]
Response given: 3.92

Challenge: Please give the documented pKd of EIPAQSPTCV [FZD10, Q9ULW2]
Response given: 4.12

Challenge: Please give the documented pKd of NNNVVKVDSV [MTNR1A, P48039]
Response given: below the threshold

Challenge: Please give the documented pKd of TNSRHGETTV [FZD2, Q14332]
Response given: 4.04

Challenge: Please give the documented pKd of QSGLYESEEL [MYOT, Q9UBF9]
Response given: below the threshold

Challenge: Please give the documented pKd of RSSGGDDFWF [KCNV1, Q6PIU1]
Response given: 4.8

Challenge: Please give the documented pKd of DPAESMESLV [PTPRG, P23470]
Response given: below the threshold

Challenge: Please give the documented pKd of LESTTVGTSV [KARS1, Q15046]
Response given: below the threshold

Challenge: Please give the documented pKd of LAHVKHKEQI [AQP3, Q92482]
Response given: 3.98

Challenge: Please give the documented pKd of DRIQSCLSDA [SBF1, O95248]
Response given: below the threshold

Challenge: Please give the documented pKd of DFLSTFHIRI [CIB2, O75838]
Response given: 4.13
